biological target: cIAP2XBIR3 (Homo sapiens, UniProt Q13489, C294S/R318G/S278A); assay: Fluorescence polarization peptide binding assay, cIAP2XBIR3; details: 0.4 μM cIAP2XBIR3, 5 nM AVP-diPhe-FAM probe; Ki determined from IC50
Sequence (Q13489 with tags, fused parts or gaps S278A/C294S/R318G): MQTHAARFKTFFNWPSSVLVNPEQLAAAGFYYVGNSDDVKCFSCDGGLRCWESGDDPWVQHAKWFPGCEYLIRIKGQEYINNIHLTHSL
readout.name: pKi
Give bare numbers, as −log10 of the molar value.

Input: Give a short answer stating reported pKi for CN[C@@H](C)C(=O)N[C@H](C(=O)N1CCC[C@H]1c1cc2ccnc(-c3ccccc3)c2[nH]1)C1CCOCC1 [compound 1] .
Output: 6.96

* * *

Please respond with reported Ki for every item in the list.
molecular target: XIAP-BIR3 (Homo sapiens); construct: serial dilutions of MLXBIR3SG, XIAP-BIR3, cIAP1XBIR3, or cIAP2XBIR3; experiment: Fluorescence polarization peptide binding assay, XIAP-BIR3; details: 0.5 μM XIAP-BIR3, 5 nM AVP-diPhe-FAM probe; Ki determined from IC50; read-out: XIAPBIR3 Ki
One number for each entry, in nM.

The examples below pair each entry with its known result.
> print(dat)
                                   compound  measured.result
1  CN[C@@H](C)C(=O)N[C@H](C(=O)N1CCC[C@H]1c1cc2ccnc(-c3ccccc3)c2[nH]1)C1CCOCC1 [compound 1]             90.5
2  CN[C@@H](C)C(=O)N[C@H](C(=O)N1CCC[C@H]1c1cc2ncnc(-c3ccccc3)c2[nH]1)C1CCCCC1 [compound 3]             79.2
3  CN[C@@H](C)C(=O)N[C@H](C(=O)N1CCC[C@H]1c1cc2nc(C)nc(-c3ccc(F)cc3)c2[nH]1)C1CCOCC1 [compound 8]               89

// next entry
Input: State recorded Ki with XIAP-BIR3 (Homo sapiens), entry CN[C@@H](C)C(=O)N[C@H](C(=O)N1CCC[C@H]1c1cc2ccnc(-c3ccc(F)cc3)c2[nH]1)C1CCCCC1 [compound 10] , no comment.
Output: 102

* * *

target: XIAP-BIR3 (Homo sapiens, UniProt P98170); construct: serial dilutions of MLXBIR3SG, XIAP-BIR3, cIAP1XBIR3, or cIAP2XBIR3; test: Fluorescence polarization peptide binding assay, XIAP-BIR3; conditions: 0.5 μM XIAP-BIR3, 5 nM AVP-diPhe-FAM probe; Ki determined from IC50; read-out: XIAPBIR3 Ki
Sequence (P98170 241-356 limits assumed): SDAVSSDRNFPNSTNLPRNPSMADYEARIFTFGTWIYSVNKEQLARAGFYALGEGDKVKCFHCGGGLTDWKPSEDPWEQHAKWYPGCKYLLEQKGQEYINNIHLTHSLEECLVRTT
Please respond with reported Ki for every item in the list.
Answers are plain numbers, in nM.

> print(dat)
                            chemical.smiles                        measurement.target  readout.name  output.unit  measured.result
1  CN[C@@H](C)C(=O)N[C@H](C(=O)N1CCC[C@H]1c1cc2ccnc(-c3ccc(F)cc3)c2[nH]1)C1CCOCC1  XIAP-BIR3 (Homo sapiens, UniProt P98170)            Ki           nM             85.6
2  CN[C@@H](C)C(=O)N[C@H](C(=O)N1CCC[C@H]1c1cc2ccnc(-c3ccccc3Cl)c2[nH]1)C1CCOCC1  XIAP-BIR3 (Homo sapiens, UniProt P98170)            Ki           nM              121
3  CN[C@@H](C)C(=O)N[C@H](C(=O)N1CCC[C@H]1c1cc2nc(C)nc(-c3ccc(F)cc3)c2[nH]1)C1CCCCC1  XIAP-BIR3 (Homo sapiens, UniProt P98170)            Ki           nM             64.9

# per-item lookup of Ki; items listed below
1. CN[C@@H](C)C(=O)N[C@H](C(=O)N1CCC[C@H]1c1cc2ccnc(-c3ccccc3)c2[nH]1)c1ccccc1
2. CN[C@@H](C)C(=O)N[C@H](C(=O)N1CCC[C@H]1c1cc2nc(C)nc(-c3ccccc3)c2[nH]1)C1CCOCC1
3. CN[C@@H](C)C(=O)N[C@H](C(=O)N1CCC[C@H]1c1cc2nc(C)nc(-c3ccccc3)c2[nH]1)C1CCCCC1

Output:
[64.4, 201, 91.5]

# per-item lookup of Ki; items listed below
1. CN[C@@H](C)C(=O)N[C@H](C(=O)N1CCC[C@H]1c1cc2ccnc(-c3ccccc3)c2[nH]1)C1CCCCC1
2. CN[C@@H](C)C(=O)N[C@H](C(=O)N1CCC[C@H]1c1cc2ncnc(-c3ccccc3)c2[nH]1)C1CCOCC1

Output:
1: 63.8; 2: 76.9
